binders and their reported koff
Measured On: S-layer protein EA1 (Bacillus anthracis Sterne, UniProt P94217)
Measurement Description: SPR; […] (5 µg/ml in 10 mM sodium acetate pH 4.0); […], dissociation 10 min; […]
Conditions Used: both partners purified
Metric: koff (s⁻¹)

- sdAb B2 (VHH, source: E. coli Rosetta, periplasmic (pECAN45), purified (IMAC, Superdex 75)) VHH: EVQLQASGGGLVQAGGSLRLSCAASGHINIHYAMGWFRRAPGKEREFVAAVTWSGASTYYADSVKGRFTISRDNGGNTMFLQLDSLKPEDTATYYCAAQGALGRLTSASGYDYWGQGTQVTVSS: 0.00037
- sdAb B12 (VHH, source: E. coli Rosetta, periplasmic (pECAN45), purified (IMAC, Superdex 75)) VHH: DVQLQASGGGLAQPGGSLRLSCVASGSVSRLSRMGWYRQAPGKQRELVAYIWHDGDNSYMDSVKGRFTISRDNARDTAYLQMNSLKPEDTAVYYCNYYRVGSGDSWGQGIQVIVSS: 0.0015
